# Method description: Induction of anti-CD3/CD28 antibodies-stimulated human T cell activation at 0.3 uM assessed fold increase in IL-2 secretion measured by ELISA assay
# Type: functional, T cell line
Measured endpoint: fold change (FC)

Worked cases, fold change (FC) given:
{"columns": ["Compound", "Measured endpoint", "Result"],
 "data": [
  ["C[C@@H](c1cc2c(c(C(F)(F)F)c1)CN(c1cccc(C3(Cc4nncn4C)COC3)c1)C2=O)N1CC[C@H](F)C1", "fold change (FC)", ">=7.5"],
  ["C[C@H](Cc1nncn1C)c1cccc(NC(=O)c2cc(C(=O)N3C[C@@H](O)[C@H](F)C3)ccn2)c1", "fold change (FC)", "<=1"],
  ["C[C@H](Sc1nncn1C)c1cccc(NC(=O)c2cc(C(F)(F)F)ccn2)c1", "fold change (FC)", "<=1"],
  ["Cn1cnnc1CC(c1cccc(N2Cc3c(cccc3C(F)(F)F)C2=O)c1)C(F)(F)F (configuration not stated)", "fold change (FC)", "<=1"],
  ["CN1CC2CCC(C1)N2c1cc2c(c(C(F)(F)F)c1)CN(c1cccc(C3(Cc4nncn4C)COC3)c1)C2=O", "fold change (FC)", ">=7.5"]
]}

# batch: return fold change (FC) for each of the 2 compounds below
1. Cn1cnnc1CC1(c2cccc(N3Cc4c(cc(CN5CCOC6(CCC6)C5)cc4C(F)(F)F)C3=O)c2)COC1
2. Cn1cnnc1[C@H](F)C1(c2cccc(N3Cc4c(cc(CN5CCC(F)CC5)cc4C(F)(F)F)C3=O)c2)COC1

Data returned:
1: >=7.5; 2: >=7.5

====

Hi there, I'd appreciate the recorded Kd for every entry that follows.
# Target under test: E3 ubiquitin-protein ligase CBL-B (Homo sapiens, UniProt Q13191)
# Sequence (Q13191 whole entry, the tested form may be a part): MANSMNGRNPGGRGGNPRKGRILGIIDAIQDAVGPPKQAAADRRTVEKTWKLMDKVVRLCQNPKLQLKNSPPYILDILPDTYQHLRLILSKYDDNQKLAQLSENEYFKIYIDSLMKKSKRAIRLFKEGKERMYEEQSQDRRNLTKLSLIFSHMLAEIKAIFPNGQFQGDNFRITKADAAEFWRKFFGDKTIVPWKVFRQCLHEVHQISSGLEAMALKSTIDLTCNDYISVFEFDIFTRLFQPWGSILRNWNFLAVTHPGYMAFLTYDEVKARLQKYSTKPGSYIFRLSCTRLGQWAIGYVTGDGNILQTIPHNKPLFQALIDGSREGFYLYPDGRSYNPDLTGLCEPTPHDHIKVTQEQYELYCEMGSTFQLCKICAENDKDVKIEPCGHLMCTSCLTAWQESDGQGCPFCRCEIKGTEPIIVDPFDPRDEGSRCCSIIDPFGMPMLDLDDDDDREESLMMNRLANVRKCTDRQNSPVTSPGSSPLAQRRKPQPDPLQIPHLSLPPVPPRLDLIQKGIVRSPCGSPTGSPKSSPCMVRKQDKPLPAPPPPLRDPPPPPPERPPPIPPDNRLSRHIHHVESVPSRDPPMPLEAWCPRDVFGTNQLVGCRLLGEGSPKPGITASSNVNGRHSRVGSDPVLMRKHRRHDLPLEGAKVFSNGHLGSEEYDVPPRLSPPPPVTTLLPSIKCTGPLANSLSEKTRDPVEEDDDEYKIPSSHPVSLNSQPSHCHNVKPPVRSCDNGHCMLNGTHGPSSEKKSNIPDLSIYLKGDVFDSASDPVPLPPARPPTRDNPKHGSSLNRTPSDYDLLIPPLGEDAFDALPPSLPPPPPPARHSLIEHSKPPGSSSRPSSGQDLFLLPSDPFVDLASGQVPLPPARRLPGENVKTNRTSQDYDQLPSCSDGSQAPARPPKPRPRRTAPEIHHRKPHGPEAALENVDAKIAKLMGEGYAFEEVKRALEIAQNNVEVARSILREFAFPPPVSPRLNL
# Method description: Binding affinity towards N-terminal biotinylated Avi-tagged human CBL-B (36 to 427 residues) measured by surface plasmon resonance assay

Worked cases, Kd given:
{"columns": ["Molecule", "Target under test", "Result"],
 "data": [
  ["C[C@H](Cc1nncn1C)c1cccc(NC(=O)c2ccc(CO)c(C3CC3)n2)c1", "E3 ubiquitin-protein ligase CBL-B (Homo sapiens, UniProt Q13191)", "< 100 nM"],
  ["CC(C)Nc1cc([C@H](C)Cc2nncn2C)cc(N2Cc3c(cccc3C(F)(F)F)C2=O)n1", "E3 ubiquitin-protein ligase CBL-B (Homo sapiens, UniProt Q13191)", "< 100 nM"]
]}

# batch: return Kd for each of the 7 molecules below
1. C[C@@H]1[C@@H](c2nncn2C)[C@H]1c1cccc(N2Cc3c(cccc3C(F)(F)F)C2=O)c1
2. C[C@H](Sc1nncn1C)c1cccc(NC(=O)c2cc(NS(=O)(=O)CCO)ccn2)c1
3. Cc1cc(C(=O)Nc2cccc(C3(Cc4nncn4C)COC3)c2)nc(C2CC2)n1
4. C[C@H](Cc1nncn1C)c1cccc(N2Cc3c(cc(CN4CC(C)(O)C4)cc3C(F)(F)F)C2=O)c1
5. C[C@@H](Sc1nncn1C)c1ccnc(N2Cc3c(cccc3C(F)(F)F)C2=O)c1
6. C[C@H](Cc1nncn1C)c1cccc(N2Cc3c(cc(C(=O)N4C[C@@H](O)C[C@H]4C)cc3C(F)(F)F)C2=O)c1.O=C(O)C(F)(F)F
7. C[C@H](Cc1nncn1C)c1cccc(N2Cc3c(cc(CO)cc3C(F)(F)F)C2=O)c1

Data returned:
["< 100 nM", "> 10000 nM", "< 100 nM", "< 100 nM", "> 10000 nM", "< 100 nM", "< 100 nM"]

====

# Method description: Induction of anti-CD3/CD28 antibodies-stimulated human T cell activation at 0.3 uM assessed fold increase in IL-2 secretion measured by ELISA assay
# Assay type: functional, T cell line
Measured endpoint: fold change (FC)

{"columns": ["Query smiles", "Measured endpoint", "Result"],
 "data": [
  ["Cn1cnnc1CC1(c2cccc(NC(=O)c3cc(CN4CCC5(CC5)C4)cc(C4CC4)n3)c2)COC1", "fold change (FC)", ">=7.5"],
  ["C[C@H](Cc1nncn1C)c1cccc(NC(=O)c2cc(C(=O)N3CC[C@](C)(O)C3)ccn2)c1", "fold change (FC)", "<=1"],
  ["C[C@H](Sc1nncn1C)c1cccc(NC(=O)c2cc(C(=O)N3C[C@H](O)C[C@@H]3C)ccn2)c1", "fold change (FC)", ">=7.5"],
  ["C[C@H](Cc1nnc[nH]1)c1cccc(N2Cc3c(cccc3C(F)(F)F)C2=O)c1", "fold change (FC)", "<=1"]
]}

====

# Method description: Induction of anti-CD3/CD28 antibodies-stimulated human T cell activation at 1 uM assessed fold increase in CD25 expression measured by ELISA assay
# Type: functional, T cell line
Hi there, I'd appreciate the recorded fold change (FC) for every entry that follows.
Give bare numbers.

{"columns": ["Compound", "Readout number"],
 "data": [
  ["Cn1cnnc1C(F)(F)[C@](C)(F)c1cccc(N2Cc3c(cc(CN4CC[C@@H](S(C)(=O)=O)C4)cc3C(F)(F)F)C2=O)c1", 1.01]
]}

# batch: return fold change (FC) for each of the 6 compounds below
1. Cn1cnnc1CC1(c2cccc(N3Cc4c(cc(N5CC(C(F)F)C5)cc4C(F)(F)F)C3=O)c2)COC1
2. Cn1cnnc1CC1(c2cccc(N3Cc4c(cc(C5CC5)nc4C4CC4)C3=O)c2)COC1
3. Cn1cnnc1CC1(c2cccc(N3Cc4c(cc(CN5CCC6(CC6)C(F)(F)C5)cc4C(F)(F)F)C3=O)c2)COC1
4. Cn1cnnc1CC1(c2cccc(N3Cc4c(cc(CN5CCCC5)nc4C4CC4)C3=O)c2)COC1
5. Cn1cnnc1CC1(c2cccc(N3Cc4c(cc(CN5Cc6ccc(F)cc6C5)cc4C(F)(F)F)C3=O)c2)COC1
6. Cn1cnnc1[C@H](F)C(C)(F)c1cccc(N2Cc3c(cccc3C(F)(F)F)C2=O)c1 (single isomer, unassigned)

Data returned:
1: 1.01; 2: 1.01; 3: 1.31; 4: 1.01; 5: 1.31; 6: 1.01

Value of measured fold change (FC) for the entry `C[C@H](CO)Nc1cc([C@H](C)Cc2nncn2C)cc(N2Cc3c(cccc3C(F)(F)F)C2=O)n1` : 1.01

====

# Method description: Induction of anti-CD3 antibodies-stimulated human T cell activation at 1 uM assessed fold increase in CD25 expression measured by ELISA assay
# Format: functional, T cell line
Measured endpoint: fold change (FC)

Worked cases, fold change (FC) given:
{"columns": ["Compound", "fold change (FC)"],
 "data": [
  ["C[C@H](Sc1nncn1C)c1cccc(NC(=O)c2cc(C(=O)N3CC(O)C3)ccn2)c1", "<=0.6"],
  ["C[C@H](Cc1nncn1C)c1cccc(N2Cc3c(cc([C@H](C)N4CC(O)C4)cc3C(F)(F)F)C2=O)c1", ">=1.001"],
  ["C[C@H](Cc1nncn1C)c1cccc(N2Cc3c(cc(CN4CC(F)(F)C4)cc3C(F)(F)F)C2=O)c1", ">=1.001"],
  ["C[C@H](Cc1nncn1C)c1cccc(NC(=O)c2cc(C(=O)N3C[C@@H](O)C[C@H]3C)ccn2)c1", "<=0.6"],
  ["CC(c1cc2c(c(C(F)(F)F)c1)CN(c1cccc([C@H]3C[C@H]3c3nncn3C)c1)C2=O)N1CC[C@H](F)C1 (stereo partly drawn)", ">=1.001"]
]}

# batch: return fold change (FC) for each of the 5 compounds below
1. Cn1cnnc1C(F)(F)[C@](C)(F)c1cccc(N2Cc3c(cc(CN4CC(C(F)F)C4)cc3C(F)(F)F)C2=O)c1
2. C[C@H](c1cc2c(c(C(F)(F)F)c1)CN(c1cccc(C3([C@@H](F)c4nncn4C)COC3)c1)C2=O)N1CCC2(CC2)C1
3. C[C@H](Cc1nncn1C)c1cccc(N2Cc3c(Br)cccc3C2=O)c1
4. C[C@H](Cc1nncn1C)c1cccc(N2Cc3c(cc(CO)cc3C(F)(F)F)C2=O)c1
5. Cc1cc(C(=O)Nc2cccc(C3(Cc4nocc4C)COC3)c2)nc(C2CC2)n1

Data returned:
[">=1.001", ">=1.001", 0.801, ">=1.001", ">=1.001"]

# batch: return fold change (FC) for each of the 8 compounds below
1. Cn1cnnc1CC1(c2cccc(NC(=O)c3cc(CN4CCCCC4)nc(C4CC4)n3)c2)COC1
2. Cn1cnnc1C(F)(F)[C@](C)(F)c1cccc(N2Cc3c(cccc3C(F)(F)F)C2=O)c1
3. C[C@H](Cc1nncn1C)c1cccc(NC(=O)c2cc(C(=O)N3CC[C@](C)(O)C3)ccn2)c1
4. CN1CC2CCC1CN2c1cc2c(c(C(F)(F)F)c1)CN(c1cccc([C@@](C)(F)C(F)(F)c3nncn3C)c1)C2=O (stereo partly drawn)
5. C[C@H](Cc1nncn1C)c1cccc(NC(=O)c2ccnc3ccnn23)c1
6. Cc1ccc(C(=O)Nc2cccc([C@H](C)Sc3nncn3C)c2)nc1C
7. C[C@H](Cc1nncn1C)c1cccc(NC(=O)c2cc(C(=O)N3C[C@@H](O)[C@H](F)C3)ccn2)c1
8. Cn1cnnc1[C@@H]1C[C@@H]1c1cccc(N2Cc3c(cc(CN4CC[C@H](F)C4)cc3C(F)(F)F)C2=O)c1

Data returned:
>=1.001
0.601
<=0.6
>=1.001
0.801
<=0.6
0.601
>=1.001

Reference source for all entries: ChEMBL document CHEMBL5050844
